# Tested on: Enterococcus faecium
# procedure-details: Antimicrobial activity against Enterococcus faecium assessed as inhibition of microbial growth after 24 hrs
# Type: functional
Activity calls are given as the source filed them. The calls are words filed in the database; no cut-off is given here.
recorded-metric: MIC

# example entries with known answers
| compound | MIC |
| --- | --- |
| N=C1NCCN1CCCC[C@H]1CNC(=N)N1CC1CCCCC1 | inactive |
| CCC(C)CN1CCN(CCCC[C@H]2CNC(=N)N2CC2CCC(C)CC2)C1=N (stereo not given in full) | inactive |
| CCC(C)CN1C(=N)N(CCCC[C@H]2CNC(=N)N2CC2CCCCC2)C[C@@H]1[C@@H](C)CC (stereo not given in full) | inactive |
| CCCCCCCN1C(=N)NC[C@@H]1CCCCN1CCN(CC(C)CC)C1=N (stereo not given in full) | inactive |
| CCCC[C@H]1CN(CCCC[C@H]2CNC(=N)N2CCc2cccc(C(F)(F)F)c2)C(=N)N1CCCCC1CCCCC1 | 1.5 µM |
| CCCCCCCN1C(=N)N(CCCC[C@H]2CNC(=N)N2CCCCC2CCCCC2)C[C@@H]1CC1CCCCC1 | 1.6 µM |

MIC of "Cc1cccc(CCN2CCN(CCCC[C@H]3CNC(=N)N3CC3CCCCC3)C2=N)c1" on Enterococcus faecium?
inactive
